Data provenance is paper PMC5707067.

System: African green monkey kidney vero cells (Vero)
Test: CCK8 cytotoxicity assay, Vero
Type: cell-based
Conditions: CCK8, 48 h, normal tissue cell line
measurement.type: pIC50
Would you please state pIC50, meaning minus log10 of the concentration in mol/L, as a bare number?

I am curious: what pIC50 value has been reported for C[C@H](Oc1cc(-c2cnn(C3CCNCC3)c2)cnc1N)c1c(Cl)ccc(F)c1Cl [(S)-crizotinib, reference compound] ? 4.78

* * *

Task for the reader: assign each of the following molecules its reported IC50 at 48 h.
Experiment: CCK8 cytotoxicity assay, Lo2
Assay type: cell-based, human
Conditions: human, Lo2 human hepatic cells (normal tissue cell line), CCK8, 48 h
Please give a number only; it is taken to be in µM.

Requested read-out: IC50 at 48 h. Entry: CO[C@]1(c2cc(O)cc(O)c2)C=C(CCCC(CO)CC/C=C(\C)COC(=O)/C=C/c2ccc(O)cc2)C(=O)O1 (stereo partly shown) 150

Fill blank: measured IC50 at 48 h of the molecule C/C(=C\CCC(CO)CCCC1=C[C@@H](c2cc(O)ccc2O)OC1=O)COC(=O)/C=C/c1ccc(O)cc1 (stereo partly shown) is ____. 279

* * *

Please respond with reported pIC50 for every item in the list.
As a rule, pIC50 stands for the negative log10 of the concentration, concentration in M.

I'm curious: which pIC50 was measured for `CO[C@]1(c2cc(O)cc(O)c2)C=C(CC/C=C(\CO)CC/C=C(\C)COC(=O)/C=C/c2ccc(O)cc2)C(=O)O1` tested on MTH1 (Homo sapiens, UniProt P36639)? 4.55

Which pIC50 is reported with MTH1 (Homo sapiens, UniProt P36639) for this entry: C/C(=C\CCC(CO)CCCC1=C[C@H](c2cc(O)ccc2O)OC1=O)COC(=O)/C=C/c1ccc(O)cc1 (stereo partly shown) ? 4.64

Lab note: need pIC50 with MTH1 (Homo sapiens, UniProt P36639) for entry `CO[C@@]1(c2cc(O)cc(O)c2)C=C(CC/C=C(\CO)CC/C=C(\C)COC(=O)/C=C/c2ccc(O)cc2)C(=O)O1` , please look it up. 4.58

Could you share what pIC50 was measured for C/C(=C\CCC(CO)CCCC1=C[C@@H](c2cc(O)ccc2O)OC1=O)COC(=O)/C=C/c1ccc(O)cc1 (stereo partly shown) , tested on MTH1 (Homo sapiens, UniProt P36639)? 4.64

* * *

Assay: CCK8 cytotoxicity assay, Lo2
Format: cell-based, human
Details: human, Lo2 human hepatic cells (normal tissue cell line), CCK8, 48 h
measurement.type: IC50 at 48 h

// lookup IC50 at 48 h for CO[C@@]1(c2cc(O)cc(O)c2)C=C(CCCC(CO)CC/C=C(\C)COC(=O)/C=C/c2ccc(O)cc2)C(=O)O1 (stereo partly shown) [Compound 2] > 300 µM

Item under review: C/C(=C\CCC(CO)CCCC1=C[C@H](c2cc(O)ccc2O)OC1=O)COC(=O)/C=C/c1ccc(O)cc1 (stereo partly shown) [Compound 3] . Reported IC50 at 48 h? > 300 µM

Any idea what its IC50 at 48 h is? The compound is CO[C@]1(c2cc(O)ccc2O)C=C(CCCC(CO)CC/C=C(\C)COC(=O)/C=C/c2ccc(O)cc2)C(=O)O1 (stereo partly shown) [Compound 5] > 300 µM

Give its IC50 at 48 h value. Item: CO[C@]1(c2cc(O)cc(O)c2)C=C(CC/C=C(\CO)CC/C=C(\C)COC(=O)/C=C/c2ccc(O)cc2)C(=O)O1 [Compound 7] > 300 µM
